# target-system: Tyrosyl-tRNA synthetase, putative (Trypanosoma cruzi (strain CL Brener))
# procedure-text: Trypanosoma cruzi tyrosyl tRNA synthetase (TcYRS) _High Tyrosine SOP
# Assay type: functional
# Parameters: scale not given: in the data most compounds retested in dose-response had high values
# setup-conditions: 30 µM
Known Percent Effect of a selection of compounds
Kindly provide the numeric value in % only, without the unit symbol.

• Cc1cc(=O)[nH]c(CCNC(=O)C(c2ccc(F)cc2)N(C)C)n1 (stereo not drawn) = 10.4
• CC(NC(=O)NCc1ccoc1)c1ccc2c(c1)CCC(=O)N2 (stereo not drawn) = 8.74
• CC(C)(C)OC(=O)N1CCN(C(=O)c2sccc2C2CC2)CC1 = 3.12
• Cc1ccc(NC2CCN(C(=O)CC3CCCO3)CC2)nn1 (stereo not drawn) = 1.48
• CNC(=O)CN1CCC(NC(=O)N(C)Cc2cc(C)on2)CC1 = 8.57
• CN(Cc1ccc(Cl)s1)C(=O)c1cccc(OCC(N)=O)c1 = 4.76
• Cc1cc(-c2nnn(CCC(N)=O)n2)ccc1F = 8.33
• CC(=O)N1CCC(CN2CCN(Cc3nccn3C)C(C)C2)CC1 (stereo not drawn) = 9.9

Param item = `Cc1cc(C)nc(CCNC(=O)[C@H]2CNC[C@@H](C(=O)N3CCCC3)C2)n1` ; retrieve measured Percent Effect.
2.08

What Percent Effect value was documented for this compound, `Cc1ccc(CN2CC3(CCN(C(=O)c4cscn4)C3)C2)s1` ?
7.29

Look at this compound and give its reported Percent Effect. O=C(CN1CCCCC1Cn1cncn1)NC1CCN(C2CC2)CC1 (stereo not drawn)
2.65

# lookup: Percent Effect of `Clc1ccc2oc(C3CCN(Cc4cccnc4)CC3)nc2c1`
-0.529

Given the compound `Cc1nnc2n1CCN(Cc1ncc(-c3ccc(Cl)cc3)o1)C2` , what is its reported Percent Effect?
5.39

So what's the measured Percent Effect for this one? `CCn1c(CN(C)C)nnc1C1CCN(Cc2cccc(OC)c2)CC1`
4.3

If you can, please state the reported Percent Effect value of `Cc1nn(C)cc1C(=O)Nc1cccc(CN2CCC(CO)CC2)c1` .
1.06

----------
# target-system: Arginase-2, mitochondrial (Homo sapiens)
# Sequence (whole entry): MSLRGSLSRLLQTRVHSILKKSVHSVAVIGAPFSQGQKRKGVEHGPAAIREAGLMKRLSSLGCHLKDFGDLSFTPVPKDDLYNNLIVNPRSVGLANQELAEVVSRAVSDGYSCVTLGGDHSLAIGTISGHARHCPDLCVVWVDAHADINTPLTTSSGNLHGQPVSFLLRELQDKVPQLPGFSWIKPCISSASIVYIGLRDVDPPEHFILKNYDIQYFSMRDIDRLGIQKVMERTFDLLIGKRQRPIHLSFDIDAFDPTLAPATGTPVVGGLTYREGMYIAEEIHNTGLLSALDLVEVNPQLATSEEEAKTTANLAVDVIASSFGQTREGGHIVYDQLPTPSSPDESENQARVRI
# procedure-text: in vitro enzyme assay to detect the production of urea directly proportional to the activity of Arginase II
# Format: functional
# Set-up: scale not given: in the data most compounds retested in dose-response had high values
# setup-conditions: 33.3 µM
Reported values of Percent Effect for individual entries
Write the number in % without appending the unit.

Example entries and their recorded answers appear below.
- CN(C)c1cc(CNC(=O)c2ccc(=O)[nH]n2)ccn1: -2.32
- Cc1nc[nH]c1CN1C[C@@H]2CC[C@H](C1)N(C(=O)CCc1cnn(C)c1)C2: 29.1
- Cc1cc(CN2CCN(C(=O)NCc3ccc(C)s3)CC2)no1: 10.3
- CN(CCc1ccccc1)Cc1cc(C(=O)N2CCN(C)C(=O)C2)no1: -6.79

Requested field: Percent Effect. Item: CCc1noc(C(C)N2CCC(NC(=O)c3ccc(C)s3)CC2)n1 (stereo unspecified)
2.76

// query Percent Effect value for entry CC(=O)Nc1nc(C(=O)NC(C)c2ccc3c(c2)OCCO3)cs1 (stereo unspecified)
-4

Which Percent Effect value belongs to COc1ccc(CN(Cc2cncn2C)CC2CCCO2)cc1OC (stereo unspecified) ?
3.94

Looking for the measured Percent Effect of `COc1ccc(CN2CCc3ncnc(OC(C)C)c3CC2)cc1` , can you help?
-53.9

Field request: Percent Effect | item: `CCOc1ccc(Cl)c(C(=O)N2CCN(c3cnccn3)CC2)n1`
1.42

Need Percent Effect of `Cc1ccc(C(=O)NC2CCN(Cc3noc(CC(C)C)n3)CC2)s1` , thanks.
-8.28

Consider the molecule `CC(C)CNC(=O)[C@H]1CCS(=O)(=O)[C@@H]2CN(Cc3ccc(Cl)cc3)C[C@H]12` and give its measured Percent Effect.
2.5
